Source of measurements: patent US11292758B2

- Procedure text: in vivo
- Condition set: male, Sprague-Dawley, rat, iv, 1 mg/kg, Average AUC480 min
Readout type: AUC(0-t) (ng·h/mL)
Express the result in ng·h/mL but write the number alone.

Item CCCCC[C@H](O)CC[C@@H]1[C@H]2Cc3cccc(OCC(=O)O)c3C[C@H]2C[C@H]1O : provide AUC(0-t)
188

###

- Procedure text: in vivo
- Condition set: male, Sprague-Dawley, rat, iv, 1 mg/kg, Average (n = 3) plasma concentrations
Readout type: concentration at 30 min (µg/mL)
Express the result in µg/mL but write the number alone.

Item CCCCC[C@H](O)CC[C@@H]1[C@H]2Cc3cccc(OCC(=O)O)c3C[C@H]2C[C@H]1O [Treprostinil, treprostinil] : provide concentration at 30 min
0.0556
